- tested.target: Retinoic acid receptor RXR-alpha (Homo sapiens, UniProt P19793)
- Sequence (P19793 whole entry): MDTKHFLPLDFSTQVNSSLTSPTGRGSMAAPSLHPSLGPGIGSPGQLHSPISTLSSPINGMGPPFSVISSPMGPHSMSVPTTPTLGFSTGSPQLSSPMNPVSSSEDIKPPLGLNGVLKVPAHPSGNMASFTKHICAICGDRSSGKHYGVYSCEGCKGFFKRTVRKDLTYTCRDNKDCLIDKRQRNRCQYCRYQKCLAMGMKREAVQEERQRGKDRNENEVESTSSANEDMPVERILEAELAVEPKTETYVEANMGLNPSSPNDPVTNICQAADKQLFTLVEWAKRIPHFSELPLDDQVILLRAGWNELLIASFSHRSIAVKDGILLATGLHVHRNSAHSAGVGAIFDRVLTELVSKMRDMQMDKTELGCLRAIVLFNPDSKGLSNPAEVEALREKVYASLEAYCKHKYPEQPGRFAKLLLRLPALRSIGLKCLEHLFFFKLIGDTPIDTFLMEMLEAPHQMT
- assay.remarks: Effective concentration for antagonistic activity against RXR-alpha expressed in CV-1 cells
- Type: functional, cell-based, Cercopithecidae
attribute.measured: EC50 (nM)

Solved entries:
input.smiles	attribute.measured	reported.value
CCCCOc1c(\C(C)=C/C=C/C(C)=C/C(=O)O)cc(C(C)C)cc1C(C)C	EC50	4
CCCOc1c(-c2c[nH]c3ccc(/C(C)=C/C(=O)O)cc23)cc(C(C)(C)C)cc1C(C)(C)C	EC50	30.1
CCCCOc1c(-c2cn(C)c3ccc(/C(C)=C/C(=O)O)cc23)cc(C(C)C)cc1C(C)C	EC50	1530

a = CCCCOc1c(-c2c[nH]c3ccc(/C(C)=C/C(=O)O)cc23)cc(C(C)(C)C)cc1C(C)(C)C
b = C/C(=C\C(=O)O)c1ccc2[nH]cc(-c3cc(C(C)(C)C)cc(C(C)(C)C)c3OCC(F)F)c2c1
Exercise: In the pair a and b , the larger recorded EC50 belongs to which? Refer to your chosen entry by its label in the reply.
Key: b
(b: 66.3 nM, a: 26.4 nM)
